experiment: Octanol/buffer partition coefficient, log D of the compound at pH 7.4 by shake-flask method; assay type: physicochemical
metric: logD

mol	number
Cc1ncsc1-c1ccc(CNC(=O)[C@@H]2C[C@@H](O)CN2C(=O)[C@@H](NC(=O)COCCOCCOCCNC(=O)CCC(=O)N2CCN([C@H]3CC[C@@H](Nc4ncnn5ccc(C(C)C)c45)CC3)CC2)C(C)(C)C)cc1	3.1
Cc1ncsc1-c1ccc(CNC(=O)[C@@H]2C[C@@H](O)CN2C(=O)[C@@H](NC(=O)CCCNC(=O)CCC(=O)N2CCN([C@H]3CC[C@@H](Nc4ncnn5ccc(C(C)C)c45)CC3)CC2)C(C)(C)C)cc1	3.7
Cc1ncsc1-c1ccc(CNC(=O)[C@@H]2C[C@@H](O)CN2C(=O)[C@@H](NC(=O)COCCOCCNC(=O)CCC(=O)N2CCN([C@H]3CC[C@@H](Nc4ncnn5ccc(C(C)C)c45)CC3)CC2)C(C)(C)C)cc1	3.3
Cc1ncsc1-c1ccc(CNC(=O)[C@@H]2C[C@@H](O)CN2C(=O)[C@@H](NC(=O)COCCOCCOCCOCCNC(=O)CCC(=O)N2CCN([C@H]3CC[C@@H](Nc4ncnn5ccc(C(C)C)c45)CC3)CC2)C(C)(C)C)cc1	3
Cc1ncsc1-c1ccc(CNC(=O)[C@@H]2C[C@@H](O)CN2C(=O)[C@@H](NC(=O)COCCOCCOCCOCCOCCOCC(=O)N2CCN([C@H]3CC[C@@H](Nc4ncnn5ccc(C(C)C)c45)CC3)CC2)C(C)(C)C)cc1	2.8

* * *

target: von Hippel-Lindau disease tumor suppressor/Interleukin-1 receptor-associated kinase 3 (Homo sapiens) (UniProt Q9Y616+P40337); experiment: Protac activity at VHL/IRAK3 in LPS-induced human THP1 cells assessed as induction of IRAK3 degradation at 10 uM by Western blot analysis relative to control; assay type: cell-based; details: THP-1
Sequence (P40337 whole entry, looked up): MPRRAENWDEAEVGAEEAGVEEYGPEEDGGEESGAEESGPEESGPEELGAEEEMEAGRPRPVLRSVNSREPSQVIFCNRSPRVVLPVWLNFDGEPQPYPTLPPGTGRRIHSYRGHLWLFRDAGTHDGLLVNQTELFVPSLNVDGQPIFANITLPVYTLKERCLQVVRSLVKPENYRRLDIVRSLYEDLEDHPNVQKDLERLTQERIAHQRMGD
Sequence (Q9Y616 whole entry, looked up): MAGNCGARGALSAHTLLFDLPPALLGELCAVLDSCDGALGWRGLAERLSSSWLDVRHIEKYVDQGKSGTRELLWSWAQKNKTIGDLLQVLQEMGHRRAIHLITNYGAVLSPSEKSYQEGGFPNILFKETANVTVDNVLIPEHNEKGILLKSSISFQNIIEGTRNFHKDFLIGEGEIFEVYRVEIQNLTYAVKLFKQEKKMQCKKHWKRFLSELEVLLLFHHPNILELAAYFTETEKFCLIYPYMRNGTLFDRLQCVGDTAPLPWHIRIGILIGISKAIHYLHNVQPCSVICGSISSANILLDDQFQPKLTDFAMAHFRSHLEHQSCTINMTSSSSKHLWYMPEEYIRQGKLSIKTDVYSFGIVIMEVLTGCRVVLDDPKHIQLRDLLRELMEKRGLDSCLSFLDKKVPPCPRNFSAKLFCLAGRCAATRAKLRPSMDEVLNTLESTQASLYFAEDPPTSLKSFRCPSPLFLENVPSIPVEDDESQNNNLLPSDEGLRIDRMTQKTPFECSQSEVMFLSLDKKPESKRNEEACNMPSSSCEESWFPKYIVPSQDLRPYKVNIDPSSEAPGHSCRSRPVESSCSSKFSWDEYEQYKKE
metric: Activity (%)

mol	metric	output-unit	number
Cc1ncsc1-c1ccc(CNC(=O)[C@@H]2C[C@@H](O)CN2C(=O)[C@@H](NC(=O)COCCOCCOCCNC(=O)CCC(=O)N2CCN([C@H]3CC[C@@H](Nc4ncnn5ccc(C(C)C)c45)CC3)CC2)C(C)(C)C)cc1	Activity	%	0

a = Cc1ncsc1-c1ccc(CNC(=O)[C@@H]2C[C@@H](O)CN2C(=O)[C@@H](NC(=O)CCCCCCNC(=O)CCC(=O)N2CCN([C@H]3CC[C@@H](Nc4ncnn5ccc(C(C)C)c45)CC3)CC2)C(C)(C)C)cc1
b = Cc1ncsc1-c1ccc(CNC(=O)[C@@H]2C[C@@H](O)CN2C(=O)[C@@H](NC(=O)COCCOCCNC(=O)CCC(=O)N2CCN([C@H]3CC[C@@H](Nc4ncnn5ccc(C(C)C)c45)CC3)CC2)C(C)(C)C)cc1
Asked: Of a and b , whose reported Activity is numerically smaller? Give the label under which the chosen entry appears.
Given back: a
(a: 0%, b: 20%)

* * *

test: Octanol/buffer partition coefficient, log D of the compound at pH 7.4 by shake-flask method; type: physicochemical
metric: logD

molecule	number
Cc1ncsc1-c1ccc(CNC(=O)[C@@H]2C[C@@H](O)CN2C(=O)[C@@H](NC(=O)COCCOCCOCCOCC(=O)N2CCN([C@H]3CC[C@@H](Nc4ncnn5ccc(C(C)C)c45)CC3)CC2)C(C)(C)C)cc1	3.2

a = CC(=O)N1CCN([C@H]2CC[C@@H](Nc3ncnc4[nH]cc(C(C)C)c34)CC2)CC1
b = CC(C)c1ccn2ncnc(N[C@H]3CC[C@@H](N4CCN(C(=O)CCC(=O)NCCCCCCNc5cccc6c5C(=O)N(C5CCC(=O)NC5=O)C6=O)CC4)CC3)c12 (stereo partly specified)
Asked: Could you kindly indicate whether a or b has the higher logD value? Give the label under which the chosen entry appears.
Given back: b
(b: 3.7, a: 2.3)
